system: HMC-3; test: WST-1 viability assay, HMC-3 cells; assay type: cell-based, human; settings: Homo sapiens, HMC3; HMC-3, 72 h incubation, WST-1, four replicates
measured quantity: IC50 (µM)
Return type: number; implicit unit µM.

INPUT: Could you tell me which IC50 is on file for CNC(C)C(=O)c1ccc(CC(C)C)cc1.Cl (centres unmarked) [IBMcat, 4-isobutylmethcathinone hydrochloride] ?
OUTPUT: 61

Please look at the following compound next.
INPUT: Could you tell me which IC50 is on file for CN[C@@H](C)C(=O)c1ccc(CC(C)C)cc1 [S-IBMCat] ?
OUTPUT: 64

---

test system: Hep G2; test: WST-1 viability assay, Hep G2 cells; type: cell-based, human; settings: Hep G2, 72 h incubation, WST-1, four replicates
measured quantity: IC50
# include the unit after the value

INPUT: Could you tell me which IC50 is on file for "CN[C@H](C)C(=O)c1ccc(CC(C)C)cc1" ?
OUTPUT: 49 µM

---

system: SH-SY5Y; assay: WST-1 viability assay, SH-SY5Y cells; type: cell-based, human; conditions: Homo sapiens, 72 h incubation, WST-1, four replicates
This section presents molecules with their documented pIC50 values.
Quick note: pIC50 means taking -log10 of the concentration in moles per liter.

INPUT: Could you tell me which pIC50 is on file for CNC(C)C(=O)c1ccc(CC(C)C)cc1.Cl (centres unmarked) [IBMcat, 4-isobutylmethcathinone hydrochloride] ?
OUTPUT: 4.36

Please look at the following molecule next.
INPUT: Could you tell me which pIC50 is on file for "CN[C@@H](C)C(=O)c1ccc(CC(C)C)cc1" ?
OUTPUT: 4.30

---

system: L929; test: WST-1 viability assay, L929 cells; format: cell-based, mouse; conditions: L929, 72 h incubation, WST-1, four replicates
measured quantity: IC50 (µM)
Return type: number; implicit unit µM.

INPUT: Could you tell me which IC50 is on file for CN[C@H](C)C(=O)c1ccc(CC(C)C)cc1 [R-IBMCat] ?
OUTPUT: 39

---

tested on: HEK 293T; assay: WST-1 viability assay, HEK 293T cells; format: cell-based, human; conditions: Homo sapiens, 72 h incubation, WST-1, four replicates, read-out: IC50 ± SD
This section presents compounds with their documented pIC50 values.
Quick note: pIC50 means taking -log10 of the concentration in moles per liter.

INPUT: Could you tell me which pIC50 is on file for CNC(C)C(=O)c1ccc(CC(C)C)cc1.Cl (centres unmarked) [IBMcat, 4-isobutylmethcathinone hydrochloride] ?
OUTPUT: 3.91

Please look at the following compound next.
INPUT: Could you tell me which pIC50 is on file for "CN[C@@H](C)C(=O)c1ccc(CC(C)C)cc1" ?
OUTPUT: 3.72

---

system: HEK 293T; assay: WST-1 viability assay, HEK 293T cells; type: cell-based, human; details: 72 h incubation, WST-1, four replicates, read-out: IC50 ± SD
measured quantity: IC50 (µM)
Return type: number; implicit unit µM.

INPUT: Could you tell me which IC50 is on file for "CN[C@H](C)C(=O)c1ccc(CC(C)C)cc1" ?
OUTPUT: 185
